- Test system: cornea of rats with dry eye syndrome (ELGE)
- PROTOCOL_NOTES: Corneal permeability of fluorescent dye (corneal damage) in ELGE rats with dry eye syndrome
- Type: in vivo, rat
- MEASUREMENT_CONDITIONS: Table 6, study of YDE-001 to YDE-028, 3 mg/ml, 5 μl/eye twice daily, day 14
Square brackets hold non-standard residues; d marks the D form. Peptide text beside a SMILES is read from it. Nva(4-oxo) = CC(=O)C[C@H](N)C(=O)O; Hyp = O=C(O)[C@@H]1C[C@@H](O)CN1; Sar = CNCC(=O)O
PROPERTY_LABEL: Permeability of fluorescent dye

Worked cases, answers included:
COMPOUND	TEST_TARGET	Permeability of fluorescent dye
CC(C)C[C@H](NC(=O)CNC(=O)[C@H](CCCCN)NC(=O)[C@H](CCC(N)=O)NC(=O)CNC(=O)[C@@H]1C[C@@H](O)CN1)C(=O)N[C@@H](C)C(=O)NCC(=O)N1CCC[C@H]1C(=O)N[C@@H](CCCCN)C(=O)O [YDE-005] (H-[Hyp]GQKGLAGPK-OH)	cornea of rats with dry eye syndrome (ELGE)	37.98 ± 11.53%
CC(C)C[C@H](NC(=O)[C@H](Cc1c[nH]c2ccccc12)NC(=O)[C@H](CC(=O)O)NC(=O)[C@H](CCC(N)=O)NC(=O)CNC(=O)[C@@H]1C[C@@H](O)CN1)C(=O)N[C@@H](C)C(=O)NCC(=O)N1CCC[C@H]1C(=O)N[C@@H](CCCCN)C(=O)O [YDE-021] (H-[Hyp]GQDWLAGPK-OH)	cornea of rats with dry eye syndrome (ELGE)	37.00 ± 10.49%
CC(=O)C[C@H](NC(=O)[C@H](CCC(N)=O)NC(=O)CNC(=O)[C@@H]1C[C@@H](O)CN1)C(=O)N(C)CC(=O)N[C@@H](CC(C)C)C(=O)N[C@@H](C)C(=O)NCC(=O)N1CCC[C@H]1C(=O)N[C@@H](CCCCN)C(=O)O [YDE-025] (H-[Hyp]GQ[Nva(4-oxo)][Sar]LAGPK-OH)	cornea of rats with dry eye syndrome (ELGE)	47.10 ± 11.45%
CC(C)C[C@H](NC(=O)[C@H](Cc1ccccc1)NC(=O)[C@H](CC(=O)O)NC(=O)[C@H](CCC(N)=O)NC(=O)CNC(=O)[C@@H]1C[C@@H](O)CN1)C(=O)N[C@@H](C)C(=O)NCC(=O)N1CCC[C@H]1C(=O)N[C@@H](CCCCN)C(=O)O [YDE-019] (H-[Hyp]GQDFLAGPK-OH)	cornea of rats with dry eye syndrome (ELGE)	40.39 ± 12.57%
CC(C)C[C@H](NC(=O)[C@@H](NC(=O)[C@H](CC(=O)O)NC(=O)[C@H](CCC(N)=O)NC(=O)CNC(=O)[C@@H]1C[C@@H](O)CN1)C(C)C)C(=O)N[C@@H](C)C(=O)NCC(=O)N1CCC[C@H]1C(=O)N[C@@H](CCCCN)C(=O)O [YDE-015] (H-[Hyp]GQDVLAGPK-OH)	cornea of rats with dry eye syndrome (ELGE)	15.95 ± 6.48%
CC(C)C[C@H](NC(=O)CNC(=O)[C@@H](NC(=O)[C@H](CCC(N)=O)NC(=O)CNC(=O)[C@@H]1C[C@@H](O)CN1)C(C)C)C(=O)N[C@@H](C)C(=O)NCC(=O)N1CCC[C@H]1C(=O)N[C@@H](CCCCN)C(=O)O [YDE-009] (H-[Hyp]GQVGLAGPK-OH)	cornea of rats with dry eye syndrome (ELGE)	41.50 ± 7.86%

May I ask what Permeability of fluorescent dye has been recorded for CC(C)C[C@H](NC(=O)CNC(=O)[C@H](CCC(=O)O)NC(=O)[C@H](CCC(N)=O)NC(=O)CNC(=O)[C@@H]1C[C@@H](O)CN1)C(=O)N[C@@H](C)C(=O)NCC(=O)N1CCC[C@H]1C(=O)N[C@@H](CCCCN)C(=O)O [YDE-001] (H-[Hyp]GQEGLAGPK-OH) ?
25.49 ± 11.62%

* * *

- Test system: cornea of rats with dry eye syndrome (ELGE)
- PROTOCOL_NOTES: Corneal permeability of fluorescent dye (corneal damage) in ELGE rats with dry eye syndrome
- Type: in vivo, rat
- MEASUREMENT_CONDITIONS: Table 6, study of YDE-001 to YDE-028, 3 mg/ml, 5 μl/eye twice daily, day 14
Square brackets hold non-standard residues; d marks the D form. Peptide text beside a SMILES is read from it. ξ: configuration not given here. Hyp = O=C(O)[C@@H]1C[C@@H](O)CN1; Ile(3ξ) = CCC(C)[C@H](N)C(=O)O; Thr(3ξ) = CC(O)[C@H](N)C(=O)O
PROPERTY_LABEL: Permeability of fluorescent dye (%)
Reply with just the number (in %).

Worked cases, answers included:
COMPOUND	Permeability of fluorescent dye (%)
CC(C)C[C@H](NC(=O)CNC(=O)[C@H](CC(C)C)NC(=O)[C@H](CCC(N)=O)NC(=O)CNC(=O)[C@@H]1C[C@@H](O)CN1)C(=O)N[C@@H](C)C(=O)NCC(=O)N1CCC[C@H]1C(=O)N[C@@H](CCCCN)C(=O)O [YDE-011] (H-[Hyp]GQLGLAGPK-OH)	18.11
CC(C)C[C@H](NC(=O)[C@H](C)NC(=O)[C@H](CC(=O)O)NC(=O)[C@H](CCC(N)=O)NC(=O)CNC(=O)[C@@H]1C[C@@H](O)CN1)C(=O)N[C@@H](C)C(=O)NCC(=O)N1CCC[C@H]1C(=O)N[C@@H](CCCCN)C(=O)O [YDE-018] (H-[Hyp]GQDALAGPK-OH)	38.19
CC(C)C[C@H](NC(=O)CNC(=O)[C@@H](NC(=O)[C@H](CCC(N)=O)NC(=O)CNC(=O)[C@@H]1C[C@@H](O)CN1)C(C)O)C(=O)N[C@@H](C)C(=O)NCC(=O)N1CCC[C@H]1C(=O)N[C@@H](CCCCN)C(=O)O (stereo partly shown) [YDE-007] (H-[Hyp]GQ[Thr(3ξ)]GLAGPK-OH)	32.79

Could you now consider this next compound?
May I ask what Permeability of fluorescent dye has been recorded for CCC(C)[C@H](NC(=O)[C@H](CCC(N)=O)NC(=O)CNC(=O)[C@@H]1C[C@@H](O)CN1)C(=O)NCC(=O)N[C@@H](CC(C)C)C(=O)N[C@@H](C)C(=O)NCC(=O)N1CCC[C@H]1C(=O)N[C@@H](CCCCN)C(=O)O (stereo partly shown) [YDE-010] (H-[Hyp]GQ[Ile(3ξ)]GLAGPK-OH) ?
49.29

* * *

- PROTOCOL_NOTES: Stability in aqueous solution under long-term storage conditions (related substances)
- Assay type: physicochemical
- MEASUREMENT_CONDITIONS: 25° C., 75% RH
Square brackets hold non-standard residues; d marks the D form. Peptide text beside a SMILES is read from it. ξ: configuration not given here. cisHyp = O=C(O)[C@@H]1C[C@H](O)CN1; Hyp = O=C(O)[C@@H]1C[C@@H](O)CN1; Thr(3ξ) = CC(O)[C@H](N)C(=O)O
Decide using Amount of related substances (after 12 weeks): a value greater than or equal to 4% is Met, a smaller one is Not met.

Example results:
MOLECULE	GROUP
CC(C)C[C@H](NC(=O)CNC(=O)[C@H](Cc1ccccc1)NC(=O)[C@H](CCC(N)=O)NC(=O)CNC(=O)[C@@H]1C[C@@H](O)CN1)C(=O)N[C@@H](C)C(=O)NCC(=O)N1CCC[C@H]1C(=O)N[C@@H](CCCCN)C(=O)O [YDE-012] (H-[Hyp]GQFGLAGPK-OH)	Not met
CC(C)C[C@H](NC(=O)CNC(=O)[C@H](CC(C)C)NC(=O)[C@H](CCC(N)=O)NC(=O)CNC(=O)[C@@H]1C[C@@H](O)CN1)C(=O)N[C@@H](C)C(=O)NCC(=O)N1CCC[C@H]1C(=O)N[C@@H](CCC(N)=O)C(=O)O [YDE-032] (H-[Hyp]GQLGLAGPQ-OH)	Met
CC(C)C[C@H](NC(=O)CNC(=O)[C@@H](NC(=O)[C@H](CCC(N)=O)NC(=O)CNC(=O)[C@@H]1C[C@@H](O)CN1)C(C)O)C(=O)N[C@@H](C)C(=O)NCC(=O)N1CCC[C@H]1C(=O)N[C@@H](CCCCN)C(=O)O (stereo partly shown) [YDE-007] (H-[Hyp]GQ[Thr(3ξ)]GLAGPK-OH)	Not met
CC(C)C[C@H](NC(=O)CNC(=O)[C@@H](NC(=O)[C@H](CCC(N)=O)NC(=O)CNC(=O)[C@@H]1C[C@@H](O)CN1)C(C)C)C(=O)N[C@@H](C)C(=O)NCC(=O)N1CCC[C@H]1C(=O)N[C@@H](CCCCN)C(=O)O [YDE-009] (H-[Hyp]GQVGLAGPK-OH)	Met
CC(C)C[C@H](NC(=O)CNC(=O)[C@H](CC(C)C)NC(=O)[C@H](CCC(N)=O)NC(=O)CNC(=O)[C@@H]1C[C@H](O)CN1)C(=O)N[C@@H](C)C(=O)NCC(=O)N1CCC[C@H]1C(=O)N[C@@H](CCCCN)C(=O)O [YDE-034] (H-[cisHyp]GQLGLAGPK-OH)	Not met
CC(C)C[C@H](NC(=O)CNC(=O)[C@H](CC(C)C)NC(=O)[C@H](CCC(N)=O)NC(=O)CNC(=O)[C@@H]1C[C@@H](O)CN1)C(=O)N[C@@H](C)C(=O)NCC(=O)N1CCC[C@H]1C(=O)N[C@@H](Cc1ccc(O)cc1)C(=O)O [YDE-029] (H-[Hyp]GQLGLAGPY-OH)	Not met

# ---- query molecule ----
Hi, just wondering whether CC(C)C[C@H](NC(=O)CNC(=O)[C@H](Cc1cnc[nH]1)NC(=O)[C@H](CCC(N)=O)NC(=O)CNC(=O)[C@@H]1C[C@@H](O)CN1)C(=O)N[C@@H](C)C(=O)NCC(=O)N1CCC[C@H]1C(=O)N[C@@H](CCCCN)C(=O)O [YDE-004] (H-[Hyp]GQHGLAGPK-OH) shows Amount of related substances (after 12 weeks) of 4% or higher.
Not met
